Test: AUCt in Sprague-Dawley rat at 10 mg/kg, po administered as single dose
Format: ADME, organism-based
Conditions: in vivo
Task for the reader: assign each of the following molecules its reported AUC(0-t).
Please reply with the bare figure in ng·h/mL and do not write the unit itself.

Lookup: # AUC(0-t) lookup, item COc1ccc2c(O[C@H]3CCN4C(=O)N(C)CCCCC=C[C@@H]5C[C@@]5(C(=O)NS(=O)(=O)C5(C)CC5)NC(=O)[C@@H]4C3)cc(-c3nc(C(F)(F)F)cs3)nc2c1C
Found: 3920

Lookup: Item: COc1ccc2c(O[C@H]3C[C@H]4C(=O)N(C)CCCC/C=C/[C@@H]5C[C@@]5(C(=O)NS(=O)(=O)C5(C)CC5)NC(=O)N4C3)cc(-c3nc(C(F)(F)F)cs3)nc2c1C
Found: 2230

====

Assay: Cytotoxicity against human HuH7 cells by colorimetric proliferation assay
Format: cell-based, Huh-7
ASSAY ENDPOINT: CC50 (µM)
Please reply with the bare figure in µM and do not write the unit itself.

Lookup: # CC50 lookup, item COc1ccc2c(O[C@H]3C[C@H]4C(=O)N(C)CCCC/C=C/[C@@H]5C[C@@]5(C(=O)NS(=O)(=O)C5CC5)NC(=O)N4C3)cc(-c3nc(C)cs3)nc2c1Cl
Found: 75

Lookup: Item: COc1ccc2c(O[C@H]3C[C@H]4C(=O)N(C)CCCC/C=C/[C@@H]5C[C@@]5(C(=O)NS(=O)(=O)C5(C)CC5)NC(=O)N4C3)cc(-c3nc(C(F)(F)F)cs3)nc2c1C
Found: 75

Lookup: Item: C#Cc1csc(-c2cc(O[C@H]3C[C@H]4C(=O)N(C)CCCC/C=C/[C@@H]5C[C@@]5(C(=O)NS(=O)(=O)C5(C)CC5)NC(=O)N4C3)c3ccc(OC)c(Cl)c3n2)n1
Found: 17

Lookup: Item: COc1ccc2c(O[C@H]3C[C@H]4C(=O)N(C)CCCC/C=C/[C@@H]5C[C@@]5(C(=O)NS(=O)(=O)C5(C)CC5)NC(=O)N4C3)cc(-c3nc(C(C)C)cs3)nc2c1
Found: 42.7

Lookup: Item: C#Cc1csc(-c2cc(O[C@H]3C[C@H]4C(=O)N(C)CCCC/C=C/[C@@H]5C[C@@]5(C(=O)NS(=O)(=O)C5(C)CC5)NC(=O)N4C3)c3ccc(OC)c(C)c3n2)n1
Found: 75

Lookup: Item: COc1ccc2c(O[C@H]3C[C@H]4C(=O)N(C)CCCC/C=C/[C@@H]5C[C@@]5(C(=O)NS(=O)(=O)C5(C)CC5)NC(=O)N4C3)cc(-c3nc(C#N)cs3)nc2c1Cl
Found: 75

Lookup: Item: COc1ccc2c(O[C@H]3C[C@H]4C(=O)N(C)CCCC/C=C/[C@@H]5C[C@@]5(C(=O)NS(=O)(=O)C5(C)CC5)NC(=O)N4C3)cc(-c3csc(C(F)(F)F)n3)nc2c1Cl
Found: 59

Lookup: Item: COc1ccc2c(O[C@H]3C[C@H]4C(=O)N(C)CCCC/C=C/[C@@H]5C[C@@]5(C(=O)NS(=O)(=O)C5CC5)NC(=O)N4C3)cc(-c3csc(C(F)(F)F)n3)nc2c1C
Found: 75

Lookup: Item: COc1ccc2c(O[C@H]3C[C@H]4C(=O)N(C)CCCC/C=C/[C@@H]5C[C@@]5(C(=O)NS(=O)(=O)C5(C)CC5)NC(=O)N4C3)cc(-c3nc(C4CCC4)cs3)nc2c1Cl
Found: 75

====

Assay: Clearance in CD-1 mouse at 2 mg/kg, iv administered as single dose measured after 24 hrs
Format: ADME, organism-based
Settings: in vivo
ASSAY ENDPOINT: clearance (mL/min/kg)
Please reply with the bare figure in mL/min/kg and do not write the unit itself.

Lookup: # clearance lookup, item COc1ccc2c(O[C@H]3CCN4C(=O)N(C)CCCCC=C[C@@H]5C[C@@]5(C(=O)NS(=O)(=O)C5(C)CC5)NC(=O)[C@@H]4C3)cc(-c3nc(C(F)(F)F)cs3)nc2c1C
Found: 8

====

Test: AUC (infinity) in Cynomolgus monkey at 2 mg/kg, po administered as single dose
Format: ADME, organism-based, Macaca fascicularis
Set-up: dose 2 mg/kg, route oral, time infinity
Conditions: in vivo
ASSAY ENDPOINT: AUC(0-inf)

Lookup: # AUC(0-inf) lookup, item COc1ccc2c(O[C@H]3CCN4C(=O)N(C)CCCCC=C[C@@H]5C[C@@]5(C(=O)NS(=O)(=O)C5(C)CC5)NC(=O)[C@@H]4C3)cc(-c3nc(C(F)(F)F)cs3)nc2c1C
Found: 8920 ng·h/mL

====

Task for the reader: assign each of the following molecules its reported CC50.
Test: Cytotoxicity against human HuH7 cells by colorimetric proliferation assay
Format: cell-based, Huh-7
Please reply with the bare figure in µM and do not write the unit itself.

Lookup: # CC50 lookup, item C=Cc1csc(-c2cc(O[C@H]3C[C@H]4C(=O)N(C)CCCC/C=C/[C@@H]5C[C@@]5(C(=O)NS(=O)(=O)C5(C)CC5)NC(=O)N4C3)c3ccc(OC)c(Cl)c3n2)n1
Found: 57.1

Lookup: Item: C#Cc1cccc(-c2cc(O[C@H]3C[C@H]4C(=O)N(C)CCCC/C=C/[C@@H]5C[C@@]5(C(=O)NS(=O)(=O)C5(C)CC5)NC(=O)N4C3)c3ccc(OC)c(C)c3n2)c1
Found: 75

Lookup: Item: COc1ccc2c(O[C@H]3C[C@H]4C(=O)N(C)CCCC/C=C/[C@@H]5C[C@@]5(C(=O)NS(=O)(=O)C5(C)CC5)NC(=O)N4C3)cc(-c3nc(C(C)C)cs3)nc2c1Cl
Found: 48.5

Lookup: Item: COc1ccc2c(O[C@H]3C[C@H]4C(=O)N(C)CCCC/C=C/[C@@H]5C[C@@]5(C(=O)NS(=O)(=O)C5(C)CC5)NC(=O)N4C3)cc(-c3cc(C(C)C)on3)nc2c1Cl
Found: 75

Lookup: Item: COc1ccc2c(O[C@H]3C[C@H]4C(=O)N(C)CCCC/C=C/[C@@H]5C[C@@]5(C(=O)NS(=O)(=O)C5CC5)NC(=O)N4C3)cc(-c3nc(C4CC4)cs3)nc2c1Cl
Found: 31.2

====

Test: Cytotoxicity against human HuH7 cells by colorimetric proliferation assay
Format: cell-based, Huh-7
CC50 strictly under 30 µM means yes; at 30 µM or over means no.

Lookup: In plain terms, does COc1ccc2c(O[C@H]3C[C@H]4C(=O)N(C)CCCC/C=C/[C@@H]5C[C@@]5(C(=O)NS(=O)(=O)C5(C)CC5)NC(=O)N4C3)cc(-n3cc(C(C)C)nn3)nc2c1Cl come in under 30 µM for CC50?
Found: yes

Lookup: Item: COc1ccc2c(O[C@H]3C[C@H]4C(=O)N(C)CCCC/C=C/[C@@H]5C[C@@]5(C(=O)NS(=O)(=O)C5(C)CC5)NC(=O)N4C3)cc(-c3nc(C(C)C)cs3)nc2c1F
Found: no

Lookup: Item: COc1ccc2c(O[C@H]3C[C@H]4C(=O)N(C)CCCC/C=C/[C@@H]5C[C@@]5(C(=O)NS(=O)(=O)C5(C)CC5)NC(=O)N4C3)cc(-c3nc(C(C)C)cs3)nc2c1Br
Found: no

Lookup: Item: COc1ccc2c(O[C@H]3CCN4C(=O)N(C)CCCCC=C[C@@H]5C[C@@]5(C(=O)NS(=O)(=O)C5(C)CC5)NC(=O)[C@@H]4C3)cc(-c3nc(C(F)(F)F)cs3)nc2c1C
Found: no

Lookup: Item: COc1ccc2c(O[C@H]3C[C@H]4C(=O)N(C)CCCC/C=C/[C@@H]5C[C@@]5(C(=O)NS(=O)(=O)C5(C)CC5)NC(=O)N4C3)cc(-n3cc(C(F)(F)F)cn3)nc2c1Cl
Found: yes

====

Assay: Clearance in Sprague-Dawley rat at 2 mg/kg, iv administered as single dose
Type: ADME, organism-based
Conditions: in vivo
Task for the reader: assign each of the following compounds its reported clearance.
Please reply with the bare figure in mL/min/kg and do not write the unit itself.

Lookup: # clearance lookup, item COc1ccc2c(O[C@H]3C[C@H]4C(=O)N(C)CCCC/C=C/[C@@H]5C[C@@]5(C(=O)NS(=O)(=O)C5(C)CC5)NC(=O)N4C3)cc(-c3nc(C(F)(F)F)cs3)nc2c1C
Found: 13.2

Lookup: Item: COc1ccc2c(O[C@H]3CCN4C(=O)N(C)CCCCC=C[C@@H]5C[C@@]5(C(=O)NS(=O)(=O)C5(C)CC5)NC(=O)[C@@H]4C3)cc(-c3nc(C(F)(F)F)cs3)nc2c1C
Found: 18.8

====

Assay: Cmax in CD-1 mouse at 2 mg/kg, po administered as single dose
Format: ADME, organism-based
Design: dose 2 mg/kg, route oral
Conditions: in vivo
ASSAY ENDPOINT: Cmax (ng/mL)
Please reply with the bare figure in ng/mL and do not write the unit itself.

Lookup: # Cmax lookup, item COc1ccc2c(O[C@H]3CCN4C(=O)N(C)CCCCC=C[C@@H]5C[C@@]5(C(=O)NS(=O)(=O)C5(C)CC5)NC(=O)[C@@H]4C3)cc(-c3nc(C(F)(F)F)cs3)nc2c1C
Found: 174
